Biological target: Cellular tumor antigen p53 (Homo sapiens) (UniProt P04637)
Sequence (P04637 whole entry, looked up): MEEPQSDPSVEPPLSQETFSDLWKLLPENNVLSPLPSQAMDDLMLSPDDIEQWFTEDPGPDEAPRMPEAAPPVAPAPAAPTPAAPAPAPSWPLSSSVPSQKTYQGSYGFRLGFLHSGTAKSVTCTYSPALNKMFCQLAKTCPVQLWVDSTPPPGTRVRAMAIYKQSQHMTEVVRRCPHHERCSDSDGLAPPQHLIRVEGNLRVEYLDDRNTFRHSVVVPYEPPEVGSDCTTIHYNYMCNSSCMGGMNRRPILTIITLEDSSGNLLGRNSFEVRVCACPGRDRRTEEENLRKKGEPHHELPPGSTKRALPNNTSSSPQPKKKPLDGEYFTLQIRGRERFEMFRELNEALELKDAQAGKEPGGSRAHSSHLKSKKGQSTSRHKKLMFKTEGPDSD
Assay: TOX21_p53_BLA_p5_ratio: Tox21 HCT-116 p53 Agonism Beta-lactamase Assay, Ratio, Phase 5 (AID 2283599)
Results filed as inconclusive are left out. Calls of active or inactive are those of the source. The calls were made as follows: active = hit-call score of the fitted dose curve at least 0.9, where 1 is the maximum; inconclusive = response in the unintended direction; inactive = score below 0.9.
Thanks in advance; please answer with one of these: 1 for active, 0 for inactive

Would you mind telling me which call this test gave `CCn1nc(Cc2ccccc2)cc1C1CCN(C[C@H]2C[C@H](N(C)[C@@H](C(=O)O)C(C)C)C[C@@H]2c2cccc(F)c2)CC1` ?
0

Another: `NC(=O)NO`
0

Another: `Oc1ccc2c(c1)-c1ccccc1C2`
0

Another: `Cc1ccc(N)cc1O`
0

Another: `O=C(NS(=O)(=O)/C=C/c1ccccc1)c1ccc(F)cc1Cl`
1

Another: `C[C@](N)(Cc1ccc(O)c(O)c1)C(=O)O`
0

Another: `C=CC(=C)CCC=C(C)C`
0
